target: Trypsin (Sus scrofa); assay: porcine trypsin inhibitors, dose response, selectivity assay for Rce1 protease inhibitor project, biochemical, quenched peptide fluorescence, cherry-pick (AID 488789)
Sequence (P00761 whole entry): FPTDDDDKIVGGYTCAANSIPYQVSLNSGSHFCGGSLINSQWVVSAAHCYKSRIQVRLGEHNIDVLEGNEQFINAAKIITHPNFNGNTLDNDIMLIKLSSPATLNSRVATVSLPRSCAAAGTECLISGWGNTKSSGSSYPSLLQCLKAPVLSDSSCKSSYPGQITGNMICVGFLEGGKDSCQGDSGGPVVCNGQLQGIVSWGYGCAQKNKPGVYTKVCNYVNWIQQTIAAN
Active and inactive are the calls of the source.
Assignment: determine reported AC50 for the given compounds.

AC50 lookup needed for `Cc1cc(C)n2cc(CSc3nncn3C)nc2n1` , thanks.
8.35 µM (active)

AC50 lookup needed for `COc1ccccc1Oc1c(C)oc2c(CN3CCN(CCO)CC3)c(O)ccc2c1=O` , thanks.
5.25 µM (active)

AC50 lookup needed for `COc1ccccc1-c1cc(C(=O)O)c2c(=O)n(C)c(=O)n(Cc3ccccc3)c2n1` , thanks.
6.03 µM (active)

AC50 lookup needed for `CC(C)(C)C(=O)C[n+]1ccc(C(N)=O)cc1` , thanks.
13.4 µM (active)

* * *

Assignment: determine reported AC50 for the given molecules.
experiment: Shn3 3'UTR reporter inhibitors, dose response, cell-based, Clone20 osteoblasts, firefly luciferase, cherry-picked (AID 624132); format: functional;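 note: firefly luciferase luminescence from reporter carrying the Shn3 3'UTR in osteoblasts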
Activity calls are given as the source filed them.

AC50 lookup needed for CC(C)Cc1ccc(C(C)C(=O)Nc2ccccc2O)cc1 (centres undefined) , thanks.
1.89 µM (active)

AC50 lookup needed for `CN(C)c1ccc(C=Cc2ccnc3c(O)cccc23)cc1` , thanks.
1.43 µM (active)

AC50 lookup needed for `CCN(CC)S(=O)(=O)c1ccc(N(C)Cc2ccc(C(F)(F)F)cc2)nc1` , thanks.
5.85 µM (active)

AC50 lookup needed for `CN1/C(=C\C(=O)CN2C(=O)NC3(CCCCCC3)C2=O)C(C)(C)c2ccccc21` , thanks.
2.66 µM (active)

* * *

test: Luminescence Cell-Based Dose Confirmation HTS to Identify Activators of 5'UTR Stem-Loop Driven Alpha-Synuclein mRNA Translation in H4 Neuroglioblastoma Cells. [Related pubchem assays: 1829 (Project Summary), 1814 (Primary HTS)]; type: functional
Activity calls are given as the source filed them.
recorded-endpoint: EC50

EC50 lookup needed for `COc1cc(N=C(S)N2CCOCC2)c(OC)cc1Cl` , thanks.
> 120 µM (not active)

EC50 lookup needed for `O=c1oc(-c2ccccc2)cc(Cl)c1Cl` , thanks.
> 120 µM (not active)

EC50 lookup needed for C=CCOc1ccc(C(=O)C2=C(O)C(=O)N(CCCn3ccnc3)C2c2cccs2)cc1 (centres undefined) , thanks.
> 120 µM (not active)

EC50 lookup needed for `COC(=O)c1ccc(COC(=O)c2nn(C)c(=O)c3ccccc23)cc1` , thanks.
15.6 µM (active)

* * *

biological target: Cytochrome P450 2D6 (Homo sapiens);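 note: CYP2D6 member of a cytochrome P450 panel assay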
Sequence (P10635 whole entry): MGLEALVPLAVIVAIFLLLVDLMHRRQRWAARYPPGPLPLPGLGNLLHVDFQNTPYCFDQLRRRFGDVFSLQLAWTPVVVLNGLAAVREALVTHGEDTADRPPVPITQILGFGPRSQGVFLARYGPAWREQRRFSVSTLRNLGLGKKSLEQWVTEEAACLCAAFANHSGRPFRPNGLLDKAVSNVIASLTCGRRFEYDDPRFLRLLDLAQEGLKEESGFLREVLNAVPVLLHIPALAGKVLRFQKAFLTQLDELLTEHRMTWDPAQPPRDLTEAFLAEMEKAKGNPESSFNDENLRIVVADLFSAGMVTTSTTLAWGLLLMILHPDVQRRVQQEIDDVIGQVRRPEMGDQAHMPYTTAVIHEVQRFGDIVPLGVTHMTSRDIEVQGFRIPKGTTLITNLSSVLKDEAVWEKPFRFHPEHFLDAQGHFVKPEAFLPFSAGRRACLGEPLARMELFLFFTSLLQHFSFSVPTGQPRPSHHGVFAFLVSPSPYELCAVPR
recorded-endpoint: AC50

AC50 lookup needed for `CNc1ncnc2ccc(-c3cccc(NS(C)(=O)=O)c3)cc12` , thanks.
39.8 µM (inconclusive)

AC50 lookup needed for `Cc1c(N2CCCC2)cc2c(c1NC(=O)c1ccccc1Cl)C(C)(C)CC2(C)C` , thanks.
3.16 µM (inconclusive)

AC50 lookup needed for `C=C1C(=O)C=C2CN(C(=O)c3ccccc3)[C@@](Cc3ccc(F)cc3)(C(=O)OC)[C@@H]12` , thanks.
39.8 µM (inconclusive)

AC50 lookup needed for `CCCCC(=O)NCCc1c(Cc2ccccc2)[nH]c2ccccc12` , thanks.
39.8 µM (inconclusive)

AC50 lookup needed for `C=CCN(CC=C)C(=O)C(=O)c1cc(C)n(-c2ccc([N+](=O)[O-])cc2)c1C` , thanks.
3.98 µM (inconclusive)

AC50 lookup needed for `O=c1c(-c2nnc(SCc3ccc(Cl)c(Cl)c3)o2)cccn1Cc1ccccc1` , thanks.
28.2 µM (inconclusive)

AC50 lookup needed for C#CCOC(=O)NC(/C=C/CCCC)c1ccccc1 (stereo not given) , thanks.
20 µM (inconclusive)

AC50 lookup needed for `O=C(CNC(=O)/C(=C\c1ccccc1)NC(=O)c1ccc(Br)cc1)OCc1ccccc1` , thanks.
14.1 µM (inconclusive)

AC50 lookup needed for `Clc1ccccc1-c1cc(NCc2ccccc2)ncn1` , thanks.
20 µM (inconclusive)

AC50 lookup needed for `COc1ccc(-c2csc(N3C(=N)SCC3=O)n2)cc1` , thanks.
11.2 µM (inconclusive)

* * *

Assignment: determine reported IC50 for the given compounds.
target: DNA dC->dU-editing enzyme APOBEC-3G (Homo sapiens, UniProt Q9HC16); format: functional;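 note: Dose-response counterscreen measuring inhibition of APOBEC3G DNA deaminase activity, run while confirming APOBEC3A inhibitors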
Sequence (Q9HC16 whole entry): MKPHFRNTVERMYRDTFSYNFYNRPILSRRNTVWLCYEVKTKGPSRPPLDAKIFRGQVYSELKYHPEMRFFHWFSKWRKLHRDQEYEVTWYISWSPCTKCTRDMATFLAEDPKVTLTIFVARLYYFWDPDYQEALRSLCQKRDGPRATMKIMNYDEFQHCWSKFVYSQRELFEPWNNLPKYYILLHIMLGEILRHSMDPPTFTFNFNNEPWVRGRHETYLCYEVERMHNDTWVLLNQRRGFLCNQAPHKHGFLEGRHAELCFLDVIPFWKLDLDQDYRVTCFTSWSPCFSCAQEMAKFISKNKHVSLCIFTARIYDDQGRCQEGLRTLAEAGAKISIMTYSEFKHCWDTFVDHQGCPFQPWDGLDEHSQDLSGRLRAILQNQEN
Calls of active or inactive are those of the source.

IC50 lookup needed for `Cn1cnc(C(=O)N2CCN(c3ccccc3)CC2)c1C(=O)N1CCN(c2ccccc2)CC1` , thanks.
6.53 µM (active)

IC50 lookup needed for `CCN1C(NCCOC)=N[C@@H](c2cccs2)C(C(=O)OC)=C1C` , thanks.
8.01 µM (active)

IC50 lookup needed for `O=C1CCCC(O)=C1Sc1ccccc1C(=O)O` , thanks.
43.8 µM (active)

IC50 lookup needed for COc1ccccc1OC(C)C(=O)N1CCN(Cc2ccc3c(c2)OCO3)CC1 (stereo unspecified) , thanks.
8.33 µM (active)

IC50 lookup needed for `COC(=O)C1=C(C)N(Cc2ccccc2)C(NCCCCO)=N[C@H]1c1cccc(C(F)(F)F)c1` , thanks.
7.1 µM (active)

IC50 lookup needed for CC(C[N+](C)(C)C)OC(=O)C1(c2ccccc2)CCCC1 (stereo unspecified) , thanks.
3.58 µM (active)

* * *

test system: Streptococcus; experiment: Group A Streptococcus viability loss, dose response, counter-screen for streptokinase expression inhibitor project, luminescence, BacTiterGlo (AID 1915); type: functional, organism-based;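 note: potency for reduction of bacterial viability or growth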
Active and inactive are the calls of the source.
Assignment: determine reported EC50 for the given compounds.

Lab note: need EC50 for `O=C(Nc1nc(-c2ccccn2)cs1)c1ncc(Cl)c(Cl)c1Cl` on Streptococcus, anyone have it?
1.64 µM (active)

Lab note: need EC50 for Cc1cc(C(C#N)c2ccc(Cl)cc2)c(Cl)cc1NC(=O)c1cc(I)cc(I)c1O (centres undefined) on Streptococcus, anyone have it?
0.092 µM (active)

Lab note: need EC50 for `COc1ccccc1NC1=NC(=O)/C(=C/c2ccc(N(C)C)cc2)S1` on Streptococcus, anyone have it?
46.7 µM (active)

Lab note: need EC50 for `CC(C)(C)c1ccc(Cn2ccc(-c3ccc4c(c3)OCO4)n2)cc1` on Streptococcus, anyone have it?
79.9 µM (active)

Lab note: need EC50 for `Cc1cc(C)n(-c2nc(SCC(=O)O)c3c4c(sc3n2)COC(C)(C)C4)n1` on Streptococcus, anyone have it?
> 150 µM (not active)

Lab note: need EC50 for `O=C(CSc1ccc(-c2ccc(Cl)cc2)nn1)NC1CCCC1` on Streptococcus, anyone have it?
> 150 µM (not active)

Lab note: need EC50 for CCOC(=O)c1ccc(NC(=O)CC2SC(N/N=C/c3c[nH]c4ccccc34)=NC2=O)cc1 (centres undefined) on Streptococcus, anyone have it?
> 150 µM (not active)

Lab note: need EC50 for `O=C(N/N=C/c1cc(Br)ccc1O)C(=O)Nc1ccccc1OC(F)(F)C(F)F` on Streptococcus, anyone have it?
1.82 µM (active)

Lab note: need EC50 for `O=C(NC(=S)N1CCN(C(c2ccccc2)c2ccccc2)CC1)c1ccc(S(=O)(=O)N2CCOCC2)cc1` on Streptococcus, anyone have it?
108 µM (active)

* * *

test system: BJ; test: cells; type: functional, cell-based; conditions: Homo sapiens
Calls of active or inactive are those of the source.
recorded-endpoint: EC50

EC50 lookup needed for `COc1ccccc1-n1cnc2cc(NCc3cccs3)ccc21` , thanks.
20.5 µM (active)

EC50 lookup needed for `CNC[C@@H](CC1CCCCC1)NC[C@H](CC(C)C)NCCc1cccc(C(F)(F)F)c1` , thanks.
7.22 µM (inconclusive)

EC50 lookup needed for `Cc1ccc(/N=C/c2c(C)[nH]n(-c3nc4ccccc4[nH]3)c2=O)cc1` , thanks.
3.03 µM (active)

EC50 lookup needed for `C=C1C(=O)C=C2CN(C(=O)c3ccccc3)[C@@](Cc3ccc(F)cc3)(C(=O)OC)[C@@H]12` , thanks.
8.08 µM (inconclusive)

EC50 lookup needed for `COc1ccc(NC(=O)c2cn(CCC#N)nc2-c2ccc([N+](=O)[O-])cc2)cc1` , thanks.
> 150 µM (not active)

* * *

target: UniProt:P03070; assay type: functional, Betapolyomavirus macacae
Sequence (P03070 whole entry): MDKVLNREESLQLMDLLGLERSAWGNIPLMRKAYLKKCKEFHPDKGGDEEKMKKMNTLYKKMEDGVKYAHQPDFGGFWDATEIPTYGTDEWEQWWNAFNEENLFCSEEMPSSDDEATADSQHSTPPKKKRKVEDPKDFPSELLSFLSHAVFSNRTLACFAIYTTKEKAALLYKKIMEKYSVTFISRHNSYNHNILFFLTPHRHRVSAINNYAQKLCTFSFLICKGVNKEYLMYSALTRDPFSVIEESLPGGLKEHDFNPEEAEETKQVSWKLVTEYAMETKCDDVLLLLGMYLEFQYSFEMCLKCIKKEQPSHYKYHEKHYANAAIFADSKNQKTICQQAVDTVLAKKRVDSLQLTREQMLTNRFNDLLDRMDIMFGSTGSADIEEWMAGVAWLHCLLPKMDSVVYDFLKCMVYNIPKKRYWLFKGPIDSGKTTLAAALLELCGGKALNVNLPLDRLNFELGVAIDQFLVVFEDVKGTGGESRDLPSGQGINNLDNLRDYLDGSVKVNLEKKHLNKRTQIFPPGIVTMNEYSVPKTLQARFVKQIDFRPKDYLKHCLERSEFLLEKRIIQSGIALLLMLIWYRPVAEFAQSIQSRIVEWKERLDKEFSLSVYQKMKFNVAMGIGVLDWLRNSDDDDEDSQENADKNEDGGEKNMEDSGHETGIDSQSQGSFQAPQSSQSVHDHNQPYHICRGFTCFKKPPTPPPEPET
Activity calls are given as the source filed them.
Assignment: determine reported IC50 for the given compounds.

Lab note: need IC50 for CCOC(=O)C1(C)C=C(Nc2ccc(O)cc2)C(=O)N1c1ccc(O)cc1 (centres undefined) on UniProt:P03070, anyone have it?
8.11 µM (active)

Lab note: need IC50 for O=C(O)CC(CCc1ccccc1)OC1OC(CO)C(O)C(O)C1O (centres undefined) on UniProt:P03070, anyone have it?
57.6 µM (active)

Lab note: need IC50 for `CCOc1cc(/C=N/NC(=O)CSc2cccc3cccnc23)ccc1O` on UniProt:P03070, anyone have it?
7.45 µM (active)

Lab note: need IC50 for COc1cccc(C(=O)NC2CC3CCCC(C2)N3CC(=O)Nc2ccc(N(C)C)cc2)c1 (centres undefined) on UniProt:P03070, anyone have it?
6.24 µM (active)

Lab note: need IC50 for `CCCn1c(=O)c2ccccc2n2c(=S)[nH]nc12` on UniProt:P03070, anyone have it?
18.2 µM (active)

Lab note: need IC50 for `O=C1CC(=O)N(Cc2ccco2)C(=S)N1` on UniProt:P03070, anyone have it?
55.5 µM (active)

Lab note: need IC50 for `Sc1nnc(COc2ccccc2)n1/N=C/C=C/c1ccco1` on UniProt:P03070, anyone have it?
> 100 µM (active)

Lab note: need IC50 for `O=C(Nc1ccc(O)cc1)c1ccc2c(c1)C(=O)N(N1C(=O)c3ccccc3C1=O)C2=O` on UniProt:P03070, anyone have it?
21.4 µM (active)

Lab note: need IC50 for COc1cc(OC)c(C2CC(=O)N3CN(c4ccccc4C)CSC3=C2C#N)cc1OC (centres undefined) on UniProt:P03070, anyone have it?
54.8 µM (active)

Lab note: need IC50 for COc1ccc(NC2CCCN(C(=O)CCCn3cncn3)C2)cc1 (centres undefined) on UniProt:P03070, anyone have it?
52.6 µM (active)

Lab note: need IC50 for `CCOc1cc(/C=N/Nc2ncnc(Cl)c2N)ccc1O` on UniProt:P03070, anyone have it?
6.12 µM (active)

Lab note: need IC50 for `COc1cc(/C=C2/C(C)=C(C#N)c3nc(N)c(C#N)c(C)c32)ccc1OCC(=O)O` on UniProt:P03070, anyone have it?
89.5 µM (active)

Lab note: need IC50 for CC1CCCN(c2ccc(N)cc2C(N)=O)C1 (centres undefined) on UniProt:P03070, anyone have it?
44.6 µM (active)

Lab note: need IC50 for `COc1cc(C=C2C(=O)NC(=O)NC2=O)ccc1O` on UniProt:P03070, anyone have it?
28 µM (active)
